Molecular target: NAD-dependent protein deacetylase sirtuin-3, mitochondrial (Homo sapiens)
Sequence (Q9NTG7 whole entry): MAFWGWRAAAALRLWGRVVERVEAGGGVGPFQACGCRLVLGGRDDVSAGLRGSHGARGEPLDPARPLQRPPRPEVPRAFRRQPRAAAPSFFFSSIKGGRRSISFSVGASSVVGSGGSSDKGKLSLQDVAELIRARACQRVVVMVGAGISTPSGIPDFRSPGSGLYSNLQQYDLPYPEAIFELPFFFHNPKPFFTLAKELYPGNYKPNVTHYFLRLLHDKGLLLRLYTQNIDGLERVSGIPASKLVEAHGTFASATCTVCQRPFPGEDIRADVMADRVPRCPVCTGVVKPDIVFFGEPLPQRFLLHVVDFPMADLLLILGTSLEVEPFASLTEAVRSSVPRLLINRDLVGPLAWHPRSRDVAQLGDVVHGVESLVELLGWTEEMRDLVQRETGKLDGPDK
Experiment: Inhibition of recombinant human His6-tagged SIRT3 using H2N-HK-[Nepsilon-acetyl-lysine]-LM-COOH as substrate incubated for 10 mins in presence of beta-NAD+ by HPLC based assay
pIC50: −log10 of the molar value.
READOUT NAME: pIC50

Answered examples (3):
structure=CCCC[C@@H]1NC(=O)CCCCCCC(=O)NCCC[C@@H](C(N)=O)NC(=O)[C@H](CCCCNC(C)=S)NC1=O study_target="NAD-dependent protein deacetylase sirtuin-3, mitochondrial (Homo sapiens)" test_result=5.74
structure=CC(=S)NCCCC[C@@H]1NC(=O)[C@H](Cc2csc3ccccc23)NC(=O)CCCCCCC(=O)NCCCC[C@@H](C(N)=O)NC1=O study_target="NAD-dependent protein deacetylase sirtuin-3, mitochondrial (Homo sapiens)" test_result=5.42
structure=CCCC[C@@H]1NC(=O)CCCCCCC(=O)NC[C@@H](C(N)=O)NC(=O)[C@H](CCCCNC(C)=S)NC1=O study_target="NAD-dependent protein deacetylase sirtuin-3, mitochondrial (Homo sapiens)" test_result=5.97

a. CCCC[C@@H]1NC(=O)CCCCCCC(=O)NCC[C@@H](C(N)=O)NC(=O)[C@H](CCCCNC(C)=S)NC1=O
b. CC(=S)NCCCC[C@@H]1NC(=O)CNC(=O)CCCCCCC(=O)NCCCC[C@@H](C(N)=O)NC1=O
From the recorded data, which exceeds the other in pIC50: a or b ? Indicate which entry you chose by stating its label.
a
(a: 5.83, b: 5.47)

1. CC(=S)NCCCC[C@@H]1NC(=O)[C@H](Cc2csc3ccccc23)NC(=O)CCCCCCC(=O)NCC[C@@H](C(N)=O)NC1=O
2. CC(=S)NCCCC[C@@H]1NC(=O)[C@H](Cc2ccc3ccccc3c2)NC(=O)CCCCCCC(=O)NCCCC[C@@H](C(N)=O)NC1=O
Lab log: flag the item ( 1 or 2 ) with the smaller pIC50 figure. Use the label to indicate which entry you chose.
1

----------
Organism: Homo sapiens
Assay: Selectivity ratio of IC50 for recombinant human His6-tagged SIRT3 to IC50 for recombinant human His6-tagged SIRT2
READOUT NAME: Ratio IC50

Would you please look over these solved cases?
structure=CCCC[C@@H]1NC(=O)CCCCCCC(=O)NC[C@@H](C(N)=O)NC(=O)[C@H](CCCCNC(C)=S)NC1=O test_result=5.9
structure=CCCC[C@@H]1NC(=O)CCCCCCC(=O)NCC[C@@H](C(N)=O)NC(=O)[C@H](CCCCNC(C)=S)NC1=O test_result=3.5
structure=CC(=S)NCCCC[C@@H]1NC(=O)[C@H](Cc2ccc3ccccc3c2)NC(=O)CCCCCCC(=O)NCCC[C@@H](C(N)=O)NC1=O test_result=2.7
structure=CC(=S)NCCCC[C@@H]1NC(=O)[C@H](Cc2csc3ccccc23)NC(=O)CCCCCCC(=O)NCC[C@@H](C(N)=O)NC1=O test_result=8.6
structure=CC(=S)NCCCC[C@@H]1NC(=O)[C@H](Cc2csc3ccccc23)NC(=O)CCCCCCC(=O)NCCC[C@@H](C(N)=O)NC1=O test_result=6.6

I. CC(=S)NCCCC[C@@H]1NC(=O)[C@H](Cc2csc3ccccc23)NC(=O)CCCCCCC(=O)NC[C@@H](C(N)=O)NC1=O
II. CC(=S)NCCCC[C@@H]1NC(=O)[C@H](Cc2ccc3ccccc3c2)NC(=O)CCCCCCC(=O)NCCCC[C@@H](C(N)=O)NC1=O
III. CC(=S)NCCCC[C@@H]1NC(=O)CNC(=O)CCCCCCC(=O)NCCCC[C@@H](C(N)=O)NC1=O
IV. CC(=S)NCCCC[C@@H]1NC(=O)[C@H](Cc2csc3ccccc23)NC(=O)CCCCCCC(=O)NCCCC[C@@H](C(N)=O)NC1=O
hey, can you rank those molecules up there by Ratio IC50? biggest number first please Note for the reader: the ranking is given by listing the labels in the order requested.
IV, II, III, I
(IV: 4.3, II: 1.4, III: 0.9, I: 0.6)

----------
Biological target: NAD-dependent protein deacylase sirtuin-5, mitochondrial (Homo sapiens, UniProt Q9NXA8)
Sequence (Q9NXA8 whole entry): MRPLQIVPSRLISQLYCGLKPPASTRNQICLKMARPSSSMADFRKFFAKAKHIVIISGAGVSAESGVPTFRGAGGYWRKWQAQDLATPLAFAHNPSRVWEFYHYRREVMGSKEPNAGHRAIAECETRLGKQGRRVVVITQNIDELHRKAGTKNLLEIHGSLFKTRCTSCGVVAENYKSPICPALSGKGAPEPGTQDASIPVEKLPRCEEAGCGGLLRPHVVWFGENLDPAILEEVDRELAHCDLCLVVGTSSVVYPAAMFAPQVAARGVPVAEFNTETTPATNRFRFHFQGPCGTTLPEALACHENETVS
Test: Inhibition of recombinant human GST-tagged SIRT5 using CH3CONH-AR-[Nepsilon-succinyl-lysine]-ST-CONH2 as substrate incubated for 5 mins in presence of beta-NAD+ by HPLC based assay
READOUT NAME: IC50

Known IC50 results, listed for orientation:
structure=CC(=S)NCCCC[C@@H]1NC(=O)[C@H](Cc2csc3ccccc23)NC(=O)CCCCCCC(=O)NCCC[C@@H](C(N)=O)NC1=O test_result="> 300 µM"
structure=CC(=S)NCCCC[C@@H]1NC(=O)[C@H](Cc2csc3ccccc23)NC(=O)CCCCCCC(=O)NCC[C@@H](C(N)=O)NC1=O test_result="> 2000 µM"

I'd like to know its IC50. The compound in question is CC(=S)NCCCC[C@@H]1NC(=O)[C@H](Cc2csc3ccccc23)NC(=O)CCCCCCC(=O)NCCCC[C@@H](C(N)=O)NC1=O
> 200 µM

Requested read-out: IC50. Entry: CC(=S)NCCCC[C@@H]1NC(=O)[C@H](Cc2ccc3ccccc3c2)NC(=O)CCCCCCC(=O)NCC[C@@H](C(N)=O)NC1=O
> 6000 µM

----------
Species: Homo sapiens
Experiment: Selectivity ratio of IC50 for recombinant human His6-tagged SIRT3 to IC50 for recombinant human His6-tagged SIRT2
READOUT NAME: Ratio IC50

structure=CC(=S)NCCCC[C@@H]1NC(=O)[C@H](Cc2ccc3ccccc3c2)NC(=O)CCCCCCC(=O)NC[C@@H](C(N)=O)NC1=O test_result=2.3
structure=CCCC[C@@H]1NC(=O)CCCCCCC(=O)NCCCC[C@@H](C(N)=O)NC(=O)[C@H](CCCCNC(C)=S)NC1=O test_result=2
structure=CC(=S)NCCCC[C@@H]1NC(=O)CNCCC(=O)NCCCC[C@@H](C(N)=O)NC1=O test_result=2.3
